The reported numbers originate from patent US9115101B2.

- measurement.target: RORc ligand binding domain (Homo sapiens)
- Construct: host or cells: E. coli
- Sequence (P51449 269-508 limits assumed): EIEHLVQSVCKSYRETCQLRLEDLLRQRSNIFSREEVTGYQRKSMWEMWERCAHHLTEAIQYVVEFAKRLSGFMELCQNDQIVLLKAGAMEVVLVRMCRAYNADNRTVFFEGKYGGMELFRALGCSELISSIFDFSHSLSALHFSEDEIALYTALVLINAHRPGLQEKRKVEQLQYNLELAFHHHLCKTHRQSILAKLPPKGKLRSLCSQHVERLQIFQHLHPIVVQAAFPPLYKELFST
- test.description: In Vitro RORc Ligand Binding Assay (25-[3H]hydroxycholesterol radioligand filtration)
- protocol.conditions: In Vitro RORc Ligand Binding Assay; Table 4; read-out: RORc IC50
property.label: IC50 (nM)

INSERT INTO measurements (compound, measurement) VALUES
  ('C[C@H]1CCC(c2ccccc2)S(=O)(=O)N1Cc1ccc(N2CCC(n3cnnc3)CC2)cc1 (single isomer, unassigned) [Example 214]', 239),
  ('C[C@H]1CCC(c2ccccc2)S(=O)(=O)N1Cc1ccc(N[C@H]2C[C@@H](n3cnnc3)C2)cc1F (some centres unmarked)', 85);

P = CC(=O)N1CCN(c2ccc(CN3CCC(C)CC(c4ccccc4)S3(=O)=O)c(F)c2)CC1 (single isomer, unassigned) [Example 331]
Q = C[C@H]1CCC(c2ccccc2)S(=O)(=O)N1Cc1ccc(N2CCN(C(=O)CCC#N)CC2)cc1F (single isomer, unassigned) [Example 73]
// pick min by IC50: P , Q # reply format: chosen label
P

----------
- measurement.target: RORc ligand binding domain (Homo sapiens, UniProt P51449)
- Construct: host or cells: E. coli
- test.description: In Vitro RORc Ligand Binding Assay (25-[3H]hydroxycholesterol radioligand filtration)
- protocol.conditions: In Vitro RORc Ligand Binding Assay; Table 4; read-out: RORc IC50
property.label: IC50 (nM)

Use the examples below as a reference point.
INSERT INTO results (compound, measurement_target, property_label, measurement) VALUES
  ('CS(=O)(=O)N1CCC(Nc2ccc(CN3CCCCC(c4ccccc4)S3(=O)=O)cc2)CC1 (single isomer, unassigned) [Example 324]', 'RORc ligand binding domain (Homo sapiens, UniProt P51449)', 'IC50', 3),
  ('C[C@H]1CCC(c2ccccc2)S(=O)(=O)N1Cc1ccc(N2CCC(c3cn[nH]c3)CC2)cc1F (single isomer, unassigned) [Example 242]', 'RORc ligand binding domain (Homo sapiens, UniProt P51449)', 'IC50', 4),
  ('C[C@H]1CCC(c2ccccc2)S(=O)(=O)N1Cc1ccc(N[C@H]2C[C@H](n3cnnc3)C2)cc1F (some centres unmarked)', 'RORc ligand binding domain (Homo sapiens, UniProt P51449)', 'IC50', 132),
  ('CS(=O)(=O)N1CCC(Oc2ccc(CN3CCCC(c4ccccc4)S3(=O)=O)c(F)c2)CC1 (single isomer, unassigned) [Example 54]', 'RORc ligand binding domain (Homo sapiens, UniProt P51449)', 'IC50', 37),
  ('CC(=O)N1CCN(c2ccc(CN3[C@@H](C)CCC(c4ccccc4)S3(=O)=O)cc2C)CC1 (single isomer, unassigned) [Example 129]', 'RORc ligand binding domain (Homo sapiens, UniProt P51449)', 'IC50', 432),
  ('CC(=O)N1CCN(c2ccc(CN3[C@@H](C)CCC(c4cccc(C)c4)S3(=O)=O)c(F)c2)CC1 (single isomer, unassigned) [Example 193]', 'RORc ligand binding domain (Homo sapiens, UniProt P51449)', 'IC50', 24);

1 = C[C@H]1CCC(c2ccccc2)S(=O)(=O)N1Cc1ccc(C(=O)N2CC(c3nncn3C)C2)cc1 (some centres unmarked)
2 = CC(=O)N1CCN(c2ccc(CN3CCCCC(c4ccccc4)S3(=O)=O)c(F)c2)CC1 (single isomer, unassigned) [Example 16]
1 or 2 : whose IC50 is greater? # reply format: chosen label
1
